# Subject of test: soluble human insulin receptor-immunoglobulin heavy chain chimera (human) (UniProt P06213)
# Protocol summary: phage ELISA ratios compared
Measured property: IR/IGF-1R ratio comparison

{"Binder": "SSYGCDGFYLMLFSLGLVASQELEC [20C-3-A1-IGFR]", "Result": 0.1}
{"Binder": "GGTEVDFYRALERLVRGQLGL [20E2B-3-D8-IGFR]", "Result": 0.1}
{"Binder": "GGTKAVAKVGTRDDPFYHKLSELLQGS [B6Hα-4-G8-IR]", "Result": 0.3}
{"Binder": "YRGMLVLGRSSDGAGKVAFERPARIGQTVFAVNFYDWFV [A6L-0-E6-IR]", "Result": 0.1}
{"Binder": "RCEEKQAEVGPSSDPFYHKMSELLGCR [B6Hα-3-E9-IR]", "Result": 0.1}
{"Binder": "RGAVAGFHDQFYDWFDRQVSRVHKFG [H2CA-4-H9-IGFR]", "Result": 0.3}

Please give measured IR/IGF-1R ratio comparison of the following entry: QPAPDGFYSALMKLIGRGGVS [20E2B-3-C8-IGFR]
0.1

Values from patent US6875741
